Target: recombinant human FAP (Homo sapiens (Human), UniProt Q12884)
Experiment: In vitro enzyme IC50 assay, FAP (Example 16)
Conditions: 10 min preincubation at 25° C.; Z-Gly-Pro-AMC
MEASURED_ENDPOINT: IC50 (nM)
Express it in nM; write the number only.

# example entries with known answers
compound=C[C@@H](NC(=O)c1ccc(CNC(=O)CN2CCN(CC(=O)O)CCN(CC(=O)O)CCN(CC(=O)O)CC2)cc1)C(=O)N1CCC[C@H]1B(O)O assay_target="recombinant human FAP (Homo sapiens (Human), UniProt Q12884)" measured_endpoint=IC50 value_units=nM experimental_value=0.7
compound=C[C@@H](NC(=O)c1ccc(CNC(=O)CN2CCN(CC(=O)O)CCN(CC(=O)O)CCN(CC(=O)O)CC2)nc1)C(=O)N1CCC[C@H]1B(O)O assay_target="recombinant human FAP (Homo sapiens (Human), UniProt Q12884)" measured_endpoint=IC50 value_units=nM experimental_value=2.4

// next entry
Returns the measured IC50 for the input compound. Input: `C[C@@H](NC(=O)c1ccc(NC(=O)CN2CCN(CC(=O)O)CCN(CC(=O)O)CCN(CC(=O)O)CC2)cc1)C(=O)N1CCC[C@H]1B(O)O`
1.6

* * *

Biological target: recombinant human fibroblast activation protein (FAP) (Homo sapiens (Human), UniProt Q12884)
Sequence (Q12884 whole entry): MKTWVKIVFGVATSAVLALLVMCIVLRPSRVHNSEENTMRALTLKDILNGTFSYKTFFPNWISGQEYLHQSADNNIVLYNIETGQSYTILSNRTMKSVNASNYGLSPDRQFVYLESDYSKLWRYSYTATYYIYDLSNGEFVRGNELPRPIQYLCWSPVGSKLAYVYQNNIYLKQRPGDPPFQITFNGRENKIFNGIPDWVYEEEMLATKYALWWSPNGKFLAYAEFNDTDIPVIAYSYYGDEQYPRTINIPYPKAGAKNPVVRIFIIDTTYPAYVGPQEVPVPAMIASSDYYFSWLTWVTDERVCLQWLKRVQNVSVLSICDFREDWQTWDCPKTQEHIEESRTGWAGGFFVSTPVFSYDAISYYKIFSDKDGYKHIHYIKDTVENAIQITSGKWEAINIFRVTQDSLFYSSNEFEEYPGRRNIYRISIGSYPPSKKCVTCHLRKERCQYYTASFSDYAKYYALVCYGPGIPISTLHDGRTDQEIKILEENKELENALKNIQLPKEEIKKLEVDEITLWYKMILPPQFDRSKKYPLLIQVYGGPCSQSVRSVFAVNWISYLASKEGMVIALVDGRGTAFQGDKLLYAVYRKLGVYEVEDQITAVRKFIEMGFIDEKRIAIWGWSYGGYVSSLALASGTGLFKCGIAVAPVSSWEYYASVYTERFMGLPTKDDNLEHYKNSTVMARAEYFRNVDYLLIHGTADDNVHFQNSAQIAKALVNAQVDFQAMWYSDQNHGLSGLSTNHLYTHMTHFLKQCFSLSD
Assay: In vitro assay fibroblast activation protein IC50 (Example 21)
Assay type: biochemical
IC50 under 3 nM gets y, anything at or over 3 nM gets n.

compound="C[C@@H](NC(=O)c1ccc(NC(=O)CCCCNC(=O)CN2CCN(CC(=O)O)CCN(CC(=O)O)CCN(CC(=O)O)CC2)cc1)C(=O)N1CCC[C@H]1B(O)O [compound 6590]" classification=y
compound="C[C@@H](NC(=O)c1ccc(CNC(=O)CN2CCN(CC(=O)O)CCN(CC(=O)O)CCN(CC(=O)O)CC2)cc1)C(=O)N1CCC[C@H]1B(O)O [compound 6555, DOTA-aminomethyl-Bz-D-Ala-boroPro]" classification=n
compound="C[C@@H](NC(=O)c1ccc(NNC(=O)CN2CCN3CCN4CCN(CC2)CC(=O)[O][Gd]([O]C(=O)C3)[O]C(=O)C4)nc1)C(=O)N1CCC[C@H]1B(O)O [4536GD]" classification=n
compound="C[C@@H](NC(=O)c1ccc(NNC(=O)CCCCCNC(=O)CN2CCN3CCN4CCN(CC2)CC(=O)[O][Lu]([O]C(=O)C3)[O]C(=O)C4)nc1)C(=O)N1CCC[C@H]1B(O)O [6609LU]" classification=y
compound="C[C@@H](NC(=O)c1ccc(CNC(=O)CN2CCN3CCN4CCN(CC2)CC(=O)[O][Lu]([O]C(=O)C3)[O]C(=O)C4)cc1)C(=O)N1CCC[C@H]1B(O)O [6555LU]" classification=n
compound="C[C@@H](NC(=O)c1ccc(NNC(=O)CN2CCN(CC(=O)O)CCN(CC(=O)O)CCN(CC(=O)O)CC2)nc1)C(=O)N1CCC[C@H]1B(O)O [compound 4536]" classification=n
compound="C[C@@H](NC(=O)c1ccc(NNC(=O)CCCCCNC(=O)CN2CCN(CC(=O)O)CCN(CC(=O)O)CCN(CC(=O)O)CC2)nc1)C(=O)N1CCC[C@H]1B(O)O [compound 6958]" classification=n
compound="C[C@@H](NC(=O)c1ccc(NNC(=O)CCCNC(=O)CN2CCN3CCN4CCN(CC2)CC(=O)[O][Gd]([O]C(=O)C3)[O]C(=O)C4)nc1)C(=O)N1CCC[C@H]1B(O)O [6489 GD]" classification=y
compound="N[C@@H](CCCCNC(=O)CN1CCN(CC(=O)O)CCN(CC(=O)O)CCN(CC(=O)O)CC1)C(=O)N1CCC[C@H]1B(O)O [compound 6549, Lys(DOTA)-boroPro]" classification=y
compound="C[C@@H](NC(=O)c1ccc(NNC(=O)CCCCCNC(=O)CN2CCN3CCN4CCN(CC2)CC(=O)[O][Ga]([O]OC(=O)C3)[O]C(=O)C4)cc1)C(=O)N1CCC[C@H]1B(O)O [6486 GA]" classification=n

# TODO verify IC50 < 3 nM strictly for this compound: C[C@@H](NC(=O)c1ccc(NNC(=O)CCCNC(=O)CN2CCN3CCN4CCN(CC2)CC(=O)[O][Ga]([O]C(=O)C3)[O]C(=O)C4)nc1)C(=O)N1CCC[C@H]1B(O)O [6489 GA]
n

# repeat for C[C@@H](NC(=O)c1ccc(NC(=O)CN2CCN(CC(=O)O)CCN(CC(=O)O)CCN(CC(=O)O)CC2)cc1)C(=O)N1CCC[C@H]1B(O)O [compound 6572, DOTA-PABA-D-Ala-boroPro]
y

# repeat for C[C@@H](NC(=O)c1ccc(NNC(=O)CN2CCN3CCN4CCN(CC2)CC(=O)[O][Ga]([O]C(=O)C3)[O]C(=O)C4)nc1)C(=O)N1CCC[C@H]1B(O)O [5183GA]
n

* * *

Biological target: recombinant human prolyl oligopeptidase (PREP) (Homo sapiens (Human), UniProt P48147)
Sequence (P48147 whole entry): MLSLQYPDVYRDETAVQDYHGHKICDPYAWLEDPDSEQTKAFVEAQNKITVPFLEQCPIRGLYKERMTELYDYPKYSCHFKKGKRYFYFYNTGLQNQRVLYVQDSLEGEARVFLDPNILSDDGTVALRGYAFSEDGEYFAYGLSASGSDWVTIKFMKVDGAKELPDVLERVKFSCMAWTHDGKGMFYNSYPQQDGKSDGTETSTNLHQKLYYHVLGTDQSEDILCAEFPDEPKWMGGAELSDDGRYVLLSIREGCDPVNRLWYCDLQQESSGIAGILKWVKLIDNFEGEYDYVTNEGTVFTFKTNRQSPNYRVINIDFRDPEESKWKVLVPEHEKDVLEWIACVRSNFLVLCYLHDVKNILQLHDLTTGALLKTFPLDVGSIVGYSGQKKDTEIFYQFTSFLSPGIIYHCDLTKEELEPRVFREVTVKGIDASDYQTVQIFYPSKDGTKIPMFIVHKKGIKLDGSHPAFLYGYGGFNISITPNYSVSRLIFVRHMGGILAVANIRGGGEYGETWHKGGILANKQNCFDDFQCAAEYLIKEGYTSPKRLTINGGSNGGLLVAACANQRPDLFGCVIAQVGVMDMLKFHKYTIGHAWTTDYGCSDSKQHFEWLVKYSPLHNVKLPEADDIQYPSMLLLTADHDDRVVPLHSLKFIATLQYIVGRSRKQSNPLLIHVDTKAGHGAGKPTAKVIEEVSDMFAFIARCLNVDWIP
Test: In vitro assay prolyl oligopeptidase IC50 (Example 21)
Assay type: biochemical
Conditions: Z-Gly-Pro-AMC; 0.6 nM enzyme
Square brackets hold non-standard residues; d marks the D form. Peptide text beside a SMILES is read from it. * marks the point of attachment. DOTAGA = O=C(O)CN1CCN(CC(=O)O)CCN(C(CCC(=O)*)C(=O)O)CCN(CC(=O)O)CC1; X5 = O=C(O)CN1CCN(CC(=O)O)CCN([C@H](CCC(=O)*)C(=O)O)CCN(CC(=O)O)CC1; DOTA = O=C(O)CN1CCN(CC(=O)O)CCN(CC(=O)*)CCN(CC(=O)O)CC1; Pyrrolidine(2S-CN,4,4-F2) = N#C[C@@H]1CC(F)(F)CN1*; boroPro = OB(O)[C@@H]1CCCN1*
Below: a set of entries, each annotated with reported pIC50.
In textbook form, pIC50 equals minus log to base ten of the concentration in mol/L.

Returns the measured pIC50 for the input compound. Input: CC(C)[C@H](NC(=O)CNC(=O)CNC(=O)CNC(=O)CC[C@H](C(=O)O)N1CCN(CC(=O)O)CCN(CC(=O)O)CCN(CC(=O)O)CC1)C(=O)N[C@H](C)C(=O)N1CCC[C@H]1B(O)O [6808D] (X5-GGGV[dA]-boroPro)
4.96

# repeat for CC(C)[C@H](NC(=O)CNC(=O)CNC(=O)CN1CCN(CC(=O)O)CCN(CC(=O)O)CCN(CC(=O)O)CC1)C(=O)N[C@H](C)C(=O)N1CC(F)(F)C[C@H]1C#N [compound 6790] ({DOTA}-GGV[dA]-{Pyrrolidine(2S-CN,4,4-F2)})
3.80

# repeat for CC(C)[C@H](NC(=O)CNC(=O)CNC(=O)CCC(C(=O)O)N1CCN(CC(=O)O)CCN(CC(=O)O)CCN(CC(=O)O)CC1)C(=O)N[C@H](C)C(=O)N1CCC[C@H]1B(O)O (stereo partly shown) [compound 6794] ({DOTAGA}-GGV[dA]-boroPro)
4.76

* * *

Below: a set of entries, each annotated with reported IC50.
Target: recombinant human fibroblast activation protein (FAP) (Homo sapiens (Human), UniProt Q12884)
Test: In vitro assay fibroblast activation protein IC50 (Example 21)
Type: biochemical
Conditions: Z-Gly-Pro-AMC; 1.2 nM enzyme
Method: The purpose of this assay is to determine the IC50 of various inhibitors against recombinant human dipeptidyl peptidase IV (DPPIV), fibroblast activation protein (FAP) or prolyl oligopeptidase (PREP). The assays are conducted in the following steps: • 1 Dissolve the compound in DMSO to a final concentration of 100 mM. […] Read the fluorescence at λex: 380, λem: 460. […]
Square brackets hold non-standard residues; d marks the D form. Peptide text beside a SMILES is read from it. * marks the point of attachment. DOTA(Ga) = O=C1CN2CCN3CCN(CC(=O)*)CCN(CC2)CC(=O)[O][Ga]([O]1)[O]C(=O)C3; DOTAGA = O=C(O)CN1CCN(CC(=O)O)CCN(C(CCC(=O)*)C(=O)O)CCN(CC(=O)O)CC1; DOTA = O=C(O)CN1CCN(CC(=O)O)CCN(CC(=O)*)CCN(CC(=O)O)CC1; boroPro = OB(O)[C@@H]1CCCN1*
Answer with the value and then the unit.

compound="CC(C)[C@H](NC(=O)CNC(=O)CNC(=O)CNC(=O)CNC(=O)CNC(=O)CCC(C(=O)O)N1CCN(CC(=O)O)CCN(CC(=O)O)CCN(CC(=O)O)CC1)C(=O)N[C@H](C)C(=O)N1CCC[C@H]1B(O)O (stereo partly drawn) [compound 6869] ({DOTAGA}-GGGGGV[dA]-boroPro)" measured_endpoint=IC50 experimental_value="1.1 nM"
compound="CC(C)[C@H](NC(=O)CCCCCNC(=O)CN1CCN2CCN3CCN(CC1)CC(=O)[O][Ga]([O]C(=O)C2)[O]C(=O)C3)C(=O)N[C@H](C)C(=O)N1CCC[C@H]1B(O)O [6948GA, DOTA(Ga)-HEX-Val-Dala-boroPro]" measured_endpoint=IC50 experimental_value="144 nM"
compound="CC(C)[C@H](NC(=O)CNC(=O)CNC(=O)CNC(=O)CNC(=O)CNC(=O)CNC(=O)CN1CCN(CC(=O)O)CCN(CC(=O)O)CCN(CC(=O)O)CC1)C(=O)N[C@H](C)C(=O)N1CCC[C@H]1B(O)O [compound 6850] ({DOTA}-GGGGGGV[dA]-boroPro)" measured_endpoint=IC50 experimental_value="21 nM"
compound="CC(C)[C@H](NC(=O)CCCNC(=O)CN1CCN2CCN3CCN(CC1)CC(=O)[O][Ga]([O]C(=O)C2)[O]C(=O)C3)C(=O)N[C@H](C)C(=O)N1CCC[C@H]1B(O)O [6614GA, DOTA(Ga)-GABA-Val-D-ala-boroPro]" measured_endpoint=IC50 experimental_value="218 nM"
compound="CC(C)[C@H](NC(=O)CNC(=O)CNC(=O)CNC(=O)CN1CCN2CCN3CCN(CC1)CC(=O)[O][Ga]([O]C(=O)C2)[O]C(=O)C3)C(=O)N[C@H](C)C(=O)N1CCC[C@H]1B(O)O [6834GA] ({DOTA(Ga)}-GGGV[dA]-boroPro)" measured_endpoint=IC50 experimental_value="439 nM"

Returns the measured IC50 for the input compound. Input: C[C@@H](NC(=O)CN1CCN2CC(=O)O[C]3(CN4CCN5CC(=O)O[C](C1)(C5)[Gd]3[O]C(=O)C4)C2)C(=O)N1CCC[C@H]1B(O)O (stereo partly drawn) [4535GD]
760 nM

# repeat for CC(C)[C@H](NC(=O)CNC(=O)CN1CCN2CCN3CCN(CC1)CC(=O)[O][Ga]([O]C(=O)C2)[O]C(=O)C3)C(=O)N[C@H](C)C(=O)N1CCC[C@H]1B(O)O [6521GA]
277 nM

# repeat for CC(C)[C@H](NC(=O)CCCCCCNC(=O)CN1CCN2CCN3CCN(CC1)CC(=O)[O][Ga]([O]C(=O)C2)[O]C(=O)C3)C(=O)N[C@H](C)C(=O)N1CCC[C@H]1B(O)O [6949GA]
181 nM

# repeat for CC(C)[C@H](NC(=O)CNC(=O)CNC(=O)CNC(=O)CNC(=O)CNC(=O)CN1CCN2CCN3CCN(CC1)CC(=O)[O][Ga]([O]C(=O)C2)[O]C(=O)C3)C(=O)N[C@H](C)C(=O)N1CCC[C@H]1B(O)O [6848GA] ({DOTA(Ga)}-GGGGGV[dA]-boroPro)
180 nM
